Each recorded value in this set is attributed to patent US8426429B2.

# study-system: β-secretase (BACE) (Homo sapiens, UniProt P56817)
# Construct: purchased Panvera
# Sequence (P56817 46-501): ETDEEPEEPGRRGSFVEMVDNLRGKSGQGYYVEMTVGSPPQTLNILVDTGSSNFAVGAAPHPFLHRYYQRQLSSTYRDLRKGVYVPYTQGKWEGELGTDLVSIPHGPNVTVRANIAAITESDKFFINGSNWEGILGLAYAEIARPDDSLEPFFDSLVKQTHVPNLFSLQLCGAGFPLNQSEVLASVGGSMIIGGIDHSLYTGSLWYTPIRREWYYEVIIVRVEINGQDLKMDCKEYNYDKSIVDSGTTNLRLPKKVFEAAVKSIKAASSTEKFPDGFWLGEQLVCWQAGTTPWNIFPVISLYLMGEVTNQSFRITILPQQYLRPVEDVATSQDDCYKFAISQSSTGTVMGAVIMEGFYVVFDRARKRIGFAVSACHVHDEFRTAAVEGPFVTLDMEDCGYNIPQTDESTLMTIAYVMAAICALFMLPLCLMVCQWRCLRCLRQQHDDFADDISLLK
# experiment-summary: BACE % Inhibition Assay ((Aedens)-[…]-(Dabcyl K-amide) substrate)
# Type: biochemical
# condition-summary: 1 μM compound; % error ±10%
# % Inhibition values compiled below
parameter-measured: % Inhibition

{"molecule": "CCCC(CCC)C(=O)NCc1cccc(CN2Cc3cc(Oc4ccccc4)ccc3N=C2N)c1", "study-system": "β-secretase (BACE) (Homo sapiens, UniProt P56817)", "parameter-measured": "% Inhibition", "result": "<30%"}
{"molecule": "NC1=Nc2ccc(Oc3ccccc3)cc2CN1Cc1cccc(CNC(=O)C23CC4CC(CC(C4)C2)C3)c1", "study-system": "β-secretase (BACE) (Homo sapiens, UniProt P56817)", "parameter-measured": "% Inhibition", "result": "<30%"}
{"molecule": "CC(C)(C)OC(=O)NCC(C1CCCCC1)N1Cc2cc(Oc3ccccc3)ccc2N=C1N (stereo not shown)", "study-system": "β-secretase (BACE) (Homo sapiens, UniProt P56817)", "parameter-measured": "% Inhibition", "result": "80%"}
{"molecule": "NC1=Nc2ccc(Oc3ccccc3)cc2CN1C(CCNC(=O)C1CCCC1)C1CCCCC1 (stereo not shown)", "study-system": "β-secretase (BACE) (Homo sapiens, UniProt P56817)", "parameter-measured": "% Inhibition", "result": "116%"}

====

# study-system: β-secretase (BACE) (Homo sapiens, UniProt P56817)
# Construct: purchased Panvera
# experiment-summary: BACE FS1 % Inhibition Assay
# Assay type: biochemical
# condition-summary: 1 μM test compound
# % Inhibition (FS) values compiled below

{"molecule": "COc1ccccc1Oc1ccc2c(c1)CN(Cc1cccc(C(=O)N(C)C3CCCCC3)c1)C(N)=N2 [Compound 232]", "% Inhibition (FS)": "<30%"}
{"molecule": "CCCC=Cc1ccc2c(c1)CN(CCNC(=O)c1cccc(C#N)c1)C(N)=N2 [Compound 568]", "% Inhibition (FS)": "<30%"}
{"molecule": "CN(C)c1ccc(Nc2ccc3c(c2)CN(Cc2cccc(C(=O)N(C)C4CCCCC4)c2)C(N)=N3)cc1 [Compound 438]", "% Inhibition (FS)": "<30%"}
{"molecule": "CN(C(=O)c1cccc(CN2Cc3cc(OCC4CCCC4)ccc3N=C2N)c1)C1CCCCC1 [Compound 521]", "% Inhibition (FS)": "<30%"}
{"molecule": "CN(C(=O)c1cccc(CN2Cc3cc(-c4ccccc4-c4ccccc4)ccc3N=C2N)c1)C1CCCCC1 [Compound 321]", "% Inhibition (FS)": "<30%"}
{"molecule": "CN(C(=O)c1cccc(CN2Cc3cc(Oc4cccnc4)ccc3N=C2N)c1)C1CCCCC1 [Compound 230]", "% Inhibition (FS)": "33%"}
{"molecule": "CN1CCCC1CCNC(=O)c1cccc(CN2Cc3cc(Oc4ccccc4)ccc3N=C2N)c1 (stereo not shown) [Compound 222]", "% Inhibition (FS)": "<30%"}
{"molecule": "CCCC(CCC)C(=O)N1CCC(N2Cc3cc(Oc4ccccc4)ccc3N=C2N)CC1 [Compound 523]", "% Inhibition (FS)": "<30%"}
{"molecule": "CC(C)[C@@H](CNC(=O)C12CC3CC(CC(C3)C1)C2)N1Cc2cc(Oc3ccccc3)ccc2N=C1N [Compound 553]", "% Inhibition (FS)": "<30%"}
{"molecule": "CCCC(=O)NCCN1Cc2cc(-c3ccccc3F)ccc2N=C1N [Compound 645]", "% Inhibition (FS)": "57%"}
{"molecule": "CCC[C@H](CNC(=O)CCC(C)C)N1Cc2cc(Oc3ccccc3)ccc2N=C1N [Compound 603]", "% Inhibition (FS)": "114%"}
{"molecule": "CN(C(=O)c1cccc(CN2Cc3cc(-c4ccc(C(N)=O)cc4)ccc3N=C2N)c1)C1CCCCC1 [Compound 162]", "% Inhibition (FS)": "<30%"}
{"molecule": "CN(C(=O)c1cccc(CN2Cc3cc(Oc4ccccc4C4CCCC4)ccc3N=C2N)c1)C1CCCCC1 [Compound 512]", "% Inhibition (FS)": "<30%"}
{"molecule": "CC(C)(C)OC(=O)N1CCC(CN2Cc3cc(Oc4ccccc4)ccc3N=C2N)CC1 [Compound 509]", "% Inhibition (FS)": "<30%"}
{"molecule": "CN(C)Cc1ccccc1-c1ccc2c(c1)CN(Cc1cccc(C(=O)N(C)C3CCCCC3)c1)C(N)=N2 [Compound 172]", "% Inhibition (FS)": "<30%"}
{"molecule": "CCOc1cccc(Nc2ccc3c(c2)CN(Cc2cccc(C(=O)N(C)C4CCCCC4)c2)C(N)=N3)c1 [Compound 440]", "% Inhibition (FS)": "35%"}

====

# % Inhibition (FS) values compiled below
# study-system: β-secretase (BACE) (Homo sapiens, UniProt P56817)
# Construct: purchased Panvera
# experiment-summary: BACE FS1 % Inhibition Assay
# Type: biochemical
# condition-summary: 3 μM test compound

{"compound": "Cc1ccc(Sc2ccc3c(c2)CN(Cc2cccc(C(=O)N(C)C4CCCCC4)c2)C(N)=N3)cc1C [Compound 408]", "% Inhibition (FS)": "95%"}
{"compound": "COc1ccccc1-c1ccc2c(c1)CN(CCNC(=O)C1(C(N)=O)CC1)C(N)=N2 [Compound 488]", "% Inhibition (FS)": "<30%"}
{"compound": "NC1=Nc2ccc(Oc3ccccc3)cc2CN1C1c2ccccc2-c2cccc(C(=O)N(C3CCCCC3)C3CCCCC3)c21 (stereo not shown) [Compound 124]", "% Inhibition (FS)": "56%"}
{"compound": "CN(C(=O)c1cccc(CN2Cc3cc(C=Cc4ccccc4)ccc3N=C2N)c1)C1CCCCC1 [Compound 266]", "% Inhibition (FS)": "<30%"}

====

# study-system: β-secretase (BACE) (Homo sapiens)
# Construct: purchased Panvera
# experiment-summary: BACE FS1 % Inhibition Assay
# Type: biochemical
# condition-summary: 0.3 μM test compound

{"compound": "CC(C)c1ccc(Sc2ccc3c(c2)CN(Cc2cccc(C(=O)N(C)C4CCCCC4)c2)C(N)=N3)cc1 [Compound 407]", "% Inhibition (FS)": "<30%"}
{"compound": "CN(C(=O)c1cccc(CN2Cc3cc(Oc4cccc(-c5ccc6ccccc6n5)c4)ccc3N=C2N)c1)C1CCCCC1 [Compound 473]", "% Inhibition (FS)": "<30%"}
{"compound": "CC(C)C(CC(=O)N(C)C1CCCCC1)N1Cc2cc(Oc3ccccc3)ccc2N=C1N (stereo not shown) [Compound 201]", "% Inhibition (FS)": "<30%"}
{"compound": "CC(C)(C)NS(=O)(=O)c1ccccc1-c1ccc2c(c1)CN(CCNC(=O)C1CCCCC1)C(N)=N2 [Compound 542]", "% Inhibition (FS)": "<30%"}
{"compound": "CCC(c1cccc(C(=O)N(C2CCCCC2)C2CCCCC2)c1)N1Cc2cc(Oc3ccccc3)ccc2N=C1N (stereo not shown) [Compound 419]", "% Inhibition (FS)": "38%"}
{"compound": "CCCC(CCCC(=O)N(CC)C1CCCCC1)N1Cc2cc(Oc3ccccc3)ccc2N=C1N (stereo not shown) [Compound 105]", "% Inhibition (FS)": "<30%"}
{"compound": "CCc1ccccc1Sc1ccc2c(c1)CN(Cc1cccc(C(=O)N(C)C3CCCCC3)c1)C(N)=N2 [Compound 406]", "% Inhibition (FS)": "<30%"}

====

# study-system: β-secretase (BACE) (Homo sapiens, UniProt P56817)
# Construct: purchased Panvera
# experiment-summary: BACE FS1 % Inhibition Assay
# Assay type: biochemical
# condition-summary: 3 μM test compound
# Experimental: The following reagents were used in this assay: sodium acetate, PEG8000 (Sigma), DMSO, HEPES, FS1 substrate [[…]] […] The FS1-substrate stock solution was prepared in DMSO as a 10 mg/mL solution. The FS1-substrate working solution was prepared by diluting the 10 mg/mL stock solution with substrate assay buffer to a final concentration of 300 μg/mL. […] For test compounds, % inhibition was determined at each concentration as follows: [formula]
parameter-measured: % Inhibition (FS)

{"compound": "NC1=Nc2ccc(Oc3ccccc3)cc2CN1C1CCN(C(=O)C2CCCC2)C1 (centres unmarked) [Compound 120]", "study-system": "β-secretase (BACE) (Homo sapiens, UniProt P56817)", "result": "<30%"}
{"compound": "CCCCC(CC)C(=O)NCCN1Cc2cc(-c3ccccc3Cl)ccc2N=C1N (centres unmarked) [Compound 655]", "study-system": "β-secretase (BACE) (Homo sapiens, UniProt P56817)", "result": "104%"}
{"compound": "CSc1ccc(Sc2ccc3c(c2)CN(Cc2cccc(C(=O)N(C)C4CCCCC4)c2)C(N)=N3)cc1 [Compound 413]", "study-system": "β-secretase (BACE) (Homo sapiens, UniProt P56817)", "result": "53%"}
{"compound": "CCCC=Cc1ccc2c(c1)CN(CCNC(=O)Cc1ccccc1)C(N)=N2 [Compound 596]", "study-system": "β-secretase (BACE) (Homo sapiens, UniProt P56817)", "result": "<30%"}
{"compound": "CCCC(=O)NCCN1Cc2cc(-c3cncnc3)ccc2N=C1N [Compound 569]", "study-system": "β-secretase (BACE) (Homo sapiens, UniProt P56817)", "result": "<30%"}
{"compound": "CC(=O)Nc1ccc(C(=O)NCCN2Cc3cc(-c4ccccc4)ccc3N=C2N)cc1 [Compound 591]", "study-system": "β-secretase (BACE) (Homo sapiens, UniProt P56817)", "result": "<30%"}
{"compound": "CC(c1ccccc1)c1ccc2c(c1)CN(Cc1cccc(C(=O)N(C)C3CCCCC3)c1)C(N)=N2 (centres unmarked) [Compound 332]", "study-system": "β-secretase (BACE) (Homo sapiens, UniProt P56817)", "result": "<30%"}
{"compound": "NC1=Nc2ccc(Oc3ccccc3)cc2CN1C1CCCN(C(=O)C2CCCCC2)C1 (centres unmarked) [Compound 611]", "study-system": "β-secretase (BACE) (Homo sapiens, UniProt P56817)", "result": "<30%"}
